# Test system: Aspergillus fumigatus NCPF7099
# Assay Method Text: Broth microdilution assay (modified EUCAST)
# Format: cell-based
# Recorded Conditions: Aspergillus fumigatus, NCPF7099, n = 3, read-out: MIC75 against Aspergillus fumigatus isolate NCPF7099
Measured Parameter: log10 MIC (log10 of the value in µM)
Recall that a logarithmic scale is used here: each number is log10 of MIC in µM.

Compound	Study System	Endpoint Result
O=C(Nc1ccc(F)cn1)c1ccc(N2CCN(c3ccc(OCC4CO[C@@](Cn5cncn5)(c5ccc(F)cc5F)C4)c(F)c3)CC2)cc1 (stereo in doubt)	Aspergillus fumigatus NCPF7099	-1.62
Cc1cc(N2CCN(c3ccc(C(=O)Nc4ccc(C#N)cn4)cc3)CC2)ccc1OC[C@@H]1CO[C@@](Cn2cncn2)(c2ccc(F)cc2F)C1	Aspergillus fumigatus NCPF7099	-1.85
COc1cc(C(=O)Nc2ccc(F)cc2)ccc1N1CCN(c2ccc(OC[C@@H]3CO[C@@](Cn4cncn4)(c4ccc(F)cc4F)C3)c(C)c2)CC1	Aspergillus fumigatus NCPF7099	-1.54
NS(=O)(=O)c1ccc(NC(=O)c2ccc(N3CCN(c4ccc(OCC5CO[C@@](Cn6cncn6)(c6ccc(F)cc6F)C5)c(F)c4)CC3)cc2)cc1 (stereo in doubt)	Aspergillus fumigatus NCPF7099	-1.79
CNS(=O)(=O)c1ccc(NC(=O)c2ccc(N3CCN(c4ccc(OC[C@@H]5CO[C@@](Cn6cncn6)(c6ccc(F)cc6F)C5)c(C)c4)CC3)cc2)cc1	Aspergillus fumigatus NCPF7099	-1.95

Request: Supply reported log10 MIC belonging to this compound: Cc1cc(N2CCN(c3ccc(C(=O)Nc4cc(F)ccc4F)cc3)CC2)ccc1OC[C@@H]1CO[C@@](Cn2cncn2)(c2ccc(F)cc2F)C1
Result: -0.88

---

# System: aspergillus fumigatus infection of BEAS2B cells
# Assay Method Text: Aspergillus fumigatus infection of bronchial epithelial cells (GM in supernatant)
# Assay type: cell-based
# Recorded Conditions: bronchial epithelial cells infected with Aspergillus fumigatus; read-out: MIC50 Infection of BEAS2B cells
MIC50 reference
# unit: µM | format: bare number

Compound	Endpoint Result
Cc1cc(N2CCN(c3ccc(C(=O)Nc4ccc(F)cc4)c(C)c3)CC2)ccc1OC[C@@H]1CO[C@@](Cn2cncn2)(c2ccc(F)cc2F)C1 [Example 33]	0.0435
Cc1cc(N2CCN(c3ccc(C(=O)Nc4ccc(C#N)cc4)cc3)CC2)cc(C)c1OC[C@@H]1CO[C@@](Cn2cncn2)(c2ccc(F)cc2F)C1 [Example 11]	0.284
Cc1cc(N2CCN(c3ccc(C(=O)Nc4c(F)cc(F)cc4F)cc3)CC2)ccc1OC[C@@H]1CO[C@@](Cn2cncn2)(c2ccc(F)cc2F)C1 [Example 31]	0.0107
NS(=O)(=O)c1ccc(NC(=O)c2ccc(N3CCN(c4ccc(OCC5CO[C@@](Cn6cncn6)(c6ccc(F)cc6F)C5)c(F)c4)CC3)cc2)cc1 (stereo in doubt) [Example 22]	0.00477

Request: Fill in MIC50 for record N#Cc1cc(N2CCN(c3ccc(C(=O)Nc4ccc(F)cc4)cc3)CC2)ccc1OC[C@@H]1CO[C@@](Cn2cncn2)(c2ccc(F)cc2F)C1 [Example 4]
Result: 0.00777

Request: # return recorded MIC50 for input Cc1cc(N2CCN(c3ccc(C(=O)Nc4cc(F)cc(F)c4)cc3)CC2)ccc1OC[C@@H]1CO[C@@](Cn2cncn2)(c2ccc(F)cc2F)C1 [Example 28]
Result: 0.0117

Request: Provide MIC50 value for the following compound: Cc1cc(N2CCN(c3ccc(C(=O)Nc4ccc(OC(F)F)cc4)cc3)CC2)ccc1OC[C@@H]1CO[C@@](Cn2cncn2)(c2ccc(F)cc2F)C1 [Example 12]
Result: 0.0973

Request: Please report the measured MIC50 for Cc1cc(N2CCN(c3ccc(C(=O)Nc4ccc(F)cc4)cc3)CC2)cc(C)c1OC[C@@H]1CO[C@@](Cn2cncn2)(c2ccc(F)cc2F)C1 [Example 15]
Result: 0.00764

Request: Please give measured MIC50 of the following entry: CNS(=O)(=O)c1ccc(NC(=O)c2ccc(N3CCN(c4ccc(OC[C@@H]5CO[C@@](Cn6cncn6)(c6ccc(F)cc6F)C5)c(C)c4)CC3)cc2)cc1 [Example 20]
Result: 0.0361
